- protocol-text: Antiproliferative activity against HUVEC cells assessed as inhibition of cell growth measured after 24 hrs by MTT assay
- Format: toxicity, cell-based
- protocol-conditions: human
recorded-metric: IC50 at 24 h (nM)
Please give a number only; it is taken to be in nM.

Record request: IC50 at 24 h value, item COc1ccc(CNC(=O)c2cc(F)ccc2N2CCOCC2)cc1/C=C/C(=O)NO
271

----------
- System: HCT-116
- protocol-text: Antiproliferative activity against human HCT-116 cells assessed as inhibition of cell growth measured after 72 hrs by MTT assay
- Format: functional, cell-based
- protocol-conditions: HCT-116, 72 h
recorded-metric: pIC50
Note: pIC50 values are expressed as the negative base-10 logarithm of concentration in M.

Field: example entries. Status: answers known.
COc1ccc(CNC(=O)c2cc(C(=O)Nc3ccccc3N)ccc2N2CCOCC2)cc1O; 7.11
O=C(/C=C/c1cc(CNC(=O)c2cc(F)ccc2N2CCOCC2)ccc1O)NO; 6.08
COc1ccc(CNC(=O)c2cc(F)ccc2N2CCOCC2)cc1O; 7.54
COc1ccc(CNC(=O)c2cc(F)ccc2N2CCOCC2)cc1OCC(=O)NO; 6.98

Proceeding to the next molecule to report its pIC50.
Record request: pIC50 value, item COc1ccc(CNC(=O)c2cc(F)ccc2N2CCOCC2)cc1/C=C/C(=O)NO
7.55
